- target_or_test_system: T1, Mouse GDF15 Fc (mouse, UniProt Q9Z0J7 189-303, limits assumed)
- T1 construct: also called mouse GDF15Fc fusion
- T1 sequence (looked up): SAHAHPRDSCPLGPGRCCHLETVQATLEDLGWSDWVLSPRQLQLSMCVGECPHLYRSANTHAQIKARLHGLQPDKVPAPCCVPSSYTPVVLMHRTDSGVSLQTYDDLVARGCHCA
- experiment_summary: Octet BLI, Fab monovalent
pKd: −log10 of the molar value.
Each item that follows carries a reported pKd.
endpoint_name: pKd

binder="Clone O Fab (Fab, V domains shown, Fab format) VH: QVQLVQSGAEVKKPGATVKVSCKASGYTFDSLGMSWVRQAPGQGLEWMGYISTYSGDTVYAQKLQGRVTMTTDTSTSTAYMELRSLRSDDTAVYYCARESGQQVSALDPWGQGTLVTVSS VL: DIQMTQSPSSVSASVGDRVTITCRASQGISRWLAWYQQKPGKAPKLLIYAASSLQSGVPSRFSGSGSGTDFTLTISSLQPEDFATYYCQQGASFPLTFGGGTKVEIK" endpoint_name=pKd test_result=7.94
binder="Clone S Fab (Fab, V domains shown, Fab format) VH: QVQLVQSGAEVKKPGASVKVSCKASGYTFTSYGINWVRQAPGQGLEWMGWITAYSGDTNYAQKLQGRVTMTTDTSTSTAYMELRSLRSDDTAVYYCARGPGQYADVDVWGQGTMVTVSS VL: DIQLTQSPSSVSASVGDRVTITCRASQGISPWLAWYQQKPGKAPKLLIYAASSLQSGVPSRFSGSGSGTDFTLTISSLQPEDFATYYCQQANSFPITFGGGTKVEIK" endpoint_name=pKd test_result=8.87
binder="Clone E Fab (Fab, V domains shown, Fab format) VH: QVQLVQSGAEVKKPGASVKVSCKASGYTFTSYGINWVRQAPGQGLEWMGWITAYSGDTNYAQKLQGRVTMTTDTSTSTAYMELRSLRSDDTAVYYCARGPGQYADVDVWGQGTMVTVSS VL: DIQMTQSPSSVSASVGDRVTITCRASQGISSWLAWYQQKPGKAPKLLIYAASSLQSGVPSRFSGSGSGTDFTLTISSLQPEDFATYYCQQANSFPITFGGGTKVEIK" endpoint_name=pKd test_result=8.51
binder="Clone I Fab (Fab, V domains shown, Fab format) VH: QVQLVQSGAEVKKPGASVKVSCKASGYTFTDEGINWVRQAPGQGLEWMGWITAYSGDTVYAQKLQGRVTMTTDTSTSTAYMELRSLRSDDTAVYYCARGPGQYADVDVWGQGTMVTVSS VL: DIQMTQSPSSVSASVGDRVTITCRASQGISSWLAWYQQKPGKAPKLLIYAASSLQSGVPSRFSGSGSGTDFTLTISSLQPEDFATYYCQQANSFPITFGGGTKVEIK" endpoint_name=pKd test_result=8.84
binder="Clone L Fab (Fab, V domains shown, Fab format) VH: QVQLVQSGAEVKKPGASVKVSCKASGYTFASYDIIWVRQAPGQGLEWMGWISALSGDTVYAQKLQGRVTMTTDTSTSTAYMELRSLRSDDTAVYYCARTRHDTSGIRFDYWGQGTLVTVSS VL: DIQMTQSPSSVSASVGDRVTITCRASQGIDSWLAWYQQKPGKAPKLLIYAASSLQSGVPSRFSGSGSGTDFTLTISSLQPEDFATYYCQQVHSFPITFGGGTKVEIK" endpoint_name=pKd test_result=6.64
